- Test system: A4-Fuk;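 also: growth inhibition of A4-Fuk cells, read out by a cell viability assay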
- measurementDescription: cells
- Type: functional, cell-based, Homo sapiens
- measurementConditions: Homo sapiens, A4-Fuk
- Description: SANGER: Inhibition of human A4-Fuk cell growth in a cell viability assay.
pIC50: −log10 of the molar value.
Entries annotated with measured pIC50

Summary for this molecule, Cc1cn(-c2cc(NC(=O)c3ccc(C)c(Nc4nccc(-c5cccnc5)n4)c3)cc(C(F)(F)F)c2)cn1 : pIC50 is < 5.70

Summary for this molecule, CCC/C=C/C=C/C(=O)O[C@H]1/C(=C/C(=O)OC)C[C@H]2C[C@H]([C@@H](C)O)OC(=O)C[C@H](O)C[C@@H]3C[C@H](OC(C)=O)C(C)(C)[C@](O)(C[C@@H]4C/C(=C/C(=O)OC)C[C@H](/C=C/C(C)(C)[C@]1(O)O2)O4)O3 : pIC50 is < 8.10

Next molecule, pIC50 to be filled in.
Summary for this molecule, CC[C@H](CO)Nc1nc(NCc2ccccc2)c2ncn(C(C)C)c2n1 : pIC50 is < 4.80
